target.entity: Kdn(a2-3)Gal(b1-3)GalNAc
protocol: glycan array binding signal (z-score within array); higher = stronger binding
setup.conditions: glycan notation: IUPAC condensed, linker removed
This is one part of a sample in which the strongest signals are shown more often than they occur.
readout.type: glycan array binding signal (z-score)

Exercise: Tell me the measured glycan array binding signal (z-score) of Epa2 (Candida glabrata) (protein) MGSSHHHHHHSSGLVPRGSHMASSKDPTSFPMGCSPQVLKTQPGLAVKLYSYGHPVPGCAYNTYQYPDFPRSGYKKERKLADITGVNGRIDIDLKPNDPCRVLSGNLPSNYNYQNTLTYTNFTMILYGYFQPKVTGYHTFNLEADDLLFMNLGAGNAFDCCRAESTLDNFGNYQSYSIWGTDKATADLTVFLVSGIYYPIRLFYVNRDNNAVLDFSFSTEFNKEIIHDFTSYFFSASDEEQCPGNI , please.
Solution: 2.25

Exercise: Tell me the measured glycan array binding signal (z-score) of SBD (Rhizopus oryzae), P07683 (protein) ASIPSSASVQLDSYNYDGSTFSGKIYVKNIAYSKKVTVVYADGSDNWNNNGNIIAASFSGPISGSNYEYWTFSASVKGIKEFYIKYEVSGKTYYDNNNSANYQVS , please.
Solution: 0.62

Exercise: Tell me the measured glycan array binding signal (z-score) of LngA (Escherichia coli) (protein) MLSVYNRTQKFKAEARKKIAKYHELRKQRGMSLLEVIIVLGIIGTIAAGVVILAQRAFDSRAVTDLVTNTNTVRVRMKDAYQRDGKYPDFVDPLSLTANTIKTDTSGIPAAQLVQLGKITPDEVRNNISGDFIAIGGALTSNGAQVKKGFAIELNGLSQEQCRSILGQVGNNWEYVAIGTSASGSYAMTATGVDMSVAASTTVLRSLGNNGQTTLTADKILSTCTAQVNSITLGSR , please.
Solution: -0.202
